inhibition values for the molecules below.
Molecular target: Solute carrier family 2, facilitated glucose transporter member 1 (Homo sapiens) (UniProt P11166)
Sequence (P11166 whole entry): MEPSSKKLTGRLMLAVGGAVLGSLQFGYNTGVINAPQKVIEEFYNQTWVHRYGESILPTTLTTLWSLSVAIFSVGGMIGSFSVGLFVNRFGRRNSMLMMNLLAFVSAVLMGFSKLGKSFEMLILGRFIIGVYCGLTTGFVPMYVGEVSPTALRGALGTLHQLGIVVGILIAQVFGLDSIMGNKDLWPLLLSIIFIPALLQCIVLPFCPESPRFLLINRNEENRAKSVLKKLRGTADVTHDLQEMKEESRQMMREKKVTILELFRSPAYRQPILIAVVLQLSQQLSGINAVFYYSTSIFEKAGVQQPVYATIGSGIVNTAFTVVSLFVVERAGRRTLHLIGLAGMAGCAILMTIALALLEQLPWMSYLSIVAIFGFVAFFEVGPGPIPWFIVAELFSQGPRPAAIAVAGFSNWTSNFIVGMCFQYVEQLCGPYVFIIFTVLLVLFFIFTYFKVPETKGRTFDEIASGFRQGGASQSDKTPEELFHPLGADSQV
Experiment: ST_JUDE_LEISH: Cytotoxicity at 2uM final concentration against transgenic Leishmania Mexicana promastigotes LmGLUT1 that are glucose transport deficient and complemented with the human glucose transporter GLUT1. Activity is measured by DNA content using SYBR green in vitro
Format: functional
// units = %; emit number, no label

Molecule: CCc1nc2nc(C)cc(Nc3cc(C)cc(C)c3)n2n1
Unit info: %
Assay value: 3.06

Molecule: CC(C)(C)c1ccc(-c2csc(NC(=O)CC(c3ccccc3)c3ccccc3)n2)cc1
Unit info: %
Assay value: 1.4

Molecule: O=C(/C=C/c1ccc(Cl)c(Cl)c1)N1CCC(CN2CCC(Cc3nc4ccccc4[nH]3)CC2)CC1
Unit info: %
Assay value: 1.43

Molecule: CCN(CC)S(=O)(=O)c1ccc(CCOCCCCCNCC(O)c2cc(Cl)c(N)c(Cl)c2)s1 (centres undefined)
Unit info: %
Assay value: 2.8

Molecule: N=C(N)NCC=C(c1ccccc1)c1ccccc1
Unit info: %
Assay value: 8.32

Next item in the queue.
What value of inhibition has been recorded for this entry: Cc1[nH]c(C)c(-c2csc3ccccc23)c(=O)c1Cl
5.32

* * *

Biological target: Glucose transporter (Leishmania mexicana)
Assay: ST_JUDE_LEISH: Cytotoxicity at 2uM final concentration against transgenic Leishmania Mexicana promastigotes LmGT2 that are glucose transport deficient and complemented with the L. Mexicana glucose transporter 2. Activity is measured by DNA content using SYBR green in vitro
Assay type: functional
Quantity name: inhibition (%)
// units = %; emit number, no label

What value of inhibition has been recorded for this entry: c1cc(CN2CCC(CCN3CCCCC3)CC2)cc(-c2cccc(-c3nc4ccccc4[nH]3)c2)c1
3.39

One more molecule: COc1cc(Nc2nccc(-c3c(-c4cccc(NC(=O)c5c(F)cccc5F)c4)nn4ccccc34)n2)cc(OC)c1OC
8.03

One more molecule: O=[N+]([O-])c1cccc(NC(=S)N2CCCN(Cc3ccc(Cl)cc3Cl)CC2)c1
3.01

* * *

Biological target: Glucose transporter (Leishmania mexicana)
Assay: ST_JUDE_LEISH: Cytotoxicity at 2uM final concentration against transgenic Leishmania Mexicana promastigotes LmGT2 that are glucose transport deficient and complemented with the L. Mexicana glucose transporter 2. Activity is measured by DNA content using SYBR green in vitro
Format: functional
Respond with 1 (yes) for inhibition values of 1% and above, 0 (no) for values below.

Compound: COc1ccc(NC(=O)/C=C/c2ccccc2Cl)cc1OCCN1CCC(NCc2ccccc2)CC1
Class assignment: 0 (no)

Compound: O=C(Cc1cc(F)cc(F)c1)NC1CCN(c2ccnc3cc(Cl)ccc23)C1 (centres undefined)
Class assignment: 1 (yes)

Compound: O=C1C(=Cc2c(O)ccc3ccccc23)SC(=NCc2ccccc2)N1Cc1ccccc1
Class assignment: 1 (yes)

Decide: is the reported value of inhibition for CN1CCC(C(=O)Nc2ccc(-c3cccc(-c4nc5cc(C(F)(F)F)ccc5[nH]4)c3)cc2)CC1 equal to or greater than 1%?
1 (yes)

One more compound: CO/C(=C\C=C\c1cc2cc(Cl)c(Cl)cc2[nH]1)C(=O)NCCN1CCCCC1
0 (no)

One more compound: Cc1ccc(NC(=O)c2ccc(CN3CCCN(Cc4cccc(O)c4)CC3)cc2)cc1
1 (yes)

* * *

Target: Solute carrier family 2, facilitated glucose transporter member 1 (Homo sapiens)
Assay: ST_JUDE_LEISH: Cytotoxicity at 2uM final concentration against transgenic Leishmania Mexicana promastigotes LmGLUT1 that are glucose transport deficient and complemented with the human glucose transporter GLUT1. Activity is measured by DNA content using SYBR green in vitro
Type: functional
inhibition values for the compounds below.
// units = %; emit number, no label

Compound: CC(C)NCc1cccc(-c2ccc(NS(=O)(=O)c3cccc4cccnc34)cc2)c1
Unit info: %
Assay value: 13.8
--
Compound: COc1ccc(F)cc1-c1ccc(C(=O)N2CCCN(c3ccc(C(F)(F)F)cn3)CC2)cc1
Unit info: %
Assay value: 2.4
--
Compound: O=C(O)c1ccc(-c2c[nH]c3ncc(-c4ccc(Cl)cc4)cc23)cc1
Unit info: %
Assay value: 0.12
--
Compound: CCCCC(O)c1cc(O)c2c(c1)OC(C)(C)CC2C1=CCN(Cc2ccc3ccccc3c2)CC1 (centres undefined)
Unit info: %
Assay value: -0.53

What value of inhibition has been recorded for this entry: CCc1cc(Br)c2c(c1)C(NCCCNc1cc(=O)c3ccccc3[nH]1)CCN2 (centres undefined)
3.82

One more compound: CCN(CC)CCCC(C)Nc1nc(C=Cc2ccc(Br)cc2)nc2cc(Cl)ccc12 (centres undefined)
11

One more compound: O=C(CSc1nccn1C1CCCC1)Nc1cc(C(F)(F)F)ccc1Cl
1.51

One more compound: COc1cc(C(=O)NC2CC(C)(C)N(C)C(C)(C)C2)ccc1-c1nc2cc(Cl)c(Cl)cc2[nH]1
-0.5

One more compound: CN1CCN(CC(=O)Nc2ccc(-c3ccc(-c4nc5ccccc5[nH]4)cc3)cc2)CC1
8.17
